# Test system: Piricularia oryzae
# Assay remarks: whole plant or invertebrate
# Type: in vivo
# Measurement parameters: Pyricularia oryzae, read-out: % control RB
Measured endpoint: pest or weed control at 200 ppm (%)
Give your result in % as a bare value.

Lab note: measured pest or weed control at 200 ppm of CCCCCCCCCCNC(=O)C(S/C=C\C(=O)NCCCCCCCC)C(=O)OCC (stereo not drawn) [Example 26] was 50

Lab note: measured pest or weed control at 200 ppm of CCCCCCCCNC(=O)/C=C\SC(C(=O)Nc1cccc(OC)c1)C(=O)OCC (stereo not drawn) [Example 23] was 50

Lab note: measured pest or weed control at 200 ppm of CCCCCCCCNC(=O)/C=C\SC(C(=O)NCCCC)C(=O)OCC (stereo not drawn) [Example 13] was 50

====

Consider the following compounds; for each one, report its MIC.
# System: Escherichia coli (E.c)
# Assay remarks: MIC, broth two-fold serial dilution (Table 3), E.c
# Type: cell-based
# Measurement parameters: Table 3, broth two-fold serial dilution, read-out: MIC E.c

Lab note: measured MIC of `CCCCCCCCNC(=O)/C=C\SC(C(C)=O)C(C)=O` was > 500 µg/mL

Lab note: measured MIC of CCCCCCCCNC(=O)/C=C\SC(C(=O)NCc1cccnc1)C(=O)OCC (stereo not drawn) was > 500 µg/mL

Lab note: measured MIC of `CCCCCCCCNC(=O)/C(Cl)=C(/Cl)SC(C(C)=O)C(C)=O` was > 500 µg/mL

====

Consider the following compounds; for each one, report its MIC.
# Tested on: Staphylococcus aureus (S.a)
# Assay remarks: MIC, broth two-fold serial dilution (Table 3), S.a
# Format: cell-based
# Measurement parameters: Table 3, broth two-fold serial dilution, read-out: MIC S.a

Lab note: measured MIC of `CCCCCCCCNC(=O)/C(Cl)=C(/Cl)SC(C(C)=O)C(C)=O` was < 4 mg/L

Lab note: measured MIC of `CCCCCCCCNC(=O)/C=C\SC(C(C)=O)C(C)=O` was < 4 mg/L

Lab note: measured MIC of CCCCCCCCNC(=O)/C=C\SC(C(=O)NCc1cccnc1)C(=O)OCC (stereo not drawn) was < 4 mg/L

====

# Tested on: Aureobasidium pullulans (A.p)
# Assay remarks: MIC, broth two-fold serial dilution (Table 3), A.p
# Assay type: cell-based
# Measurement parameters: Table 3, broth two-fold serial dilution, read-out: MIC A.p
Measured endpoint: MIC

Lab note: measured MIC of CCCCCCCCNC(=O)/C=C\SC(C(=O)Nc1cc(C)ccc1Cl)C(=O)OCC (stereo not drawn) was 16 µg/mL

Lab note: measured MIC of `CCCCCCCCNC(=O)/C(Cl)=C(/Cl)SC(C(C)=O)C(C)=O` was < 4 µg/mL

Lab note: measured MIC of `CCCCCCCCNC(=O)/C=C\SC(C(C)=O)C(C)=O` was < 4 µg/mL

====

# System: Candida albicans (C.alb)
Measured endpoint: log10 MIC (log10 of the value in µg/mL)
Field: value | Transform: log10 | Quantity: MIC | Unit: µg/mL

Lab note: measured log10 MIC of CCCCCCCCNC(=O)/C=C\SC(C(=O)Nc1cccc(Cl)c1Cl)C(=O)OCC (stereo not shown) was 0.60

Lab note: measured log10 MIC of CCCCCCCCNC(=O)/C=C\SC(C(=O)Nc1ccc(Cl)c([N+](=O)[O-])c1)C(=O)OCC (stereo not shown) was 1.49

Lab note: measured log10 MIC of CCCCCCCCNC(=O)/C=C\SC(C(C)=O)C(=O)Nc1ccc(OC)cc1 (stereo not shown) was 0.60

Lab note: measured log10 MIC of CCCCCCCCNC(=O)/C=C\SC(C(=O)Nc1ccc(Cl)cc1Cl)C(=O)OCC (stereo not shown) was 1.80

Lab note: measured log10 MIC of `CCCCCCNC(=O)/C=C\SC(C(C)=O)C(C)=O` was 1.20

Lab note: measured log10 MIC of C=CCNC(=O)C(S/C=C\C(=O)NCCCCCCCC)C(=O)OCC (stereo not shown) was 0.90

Lab note: measured log10 MIC of CCCCCCCCNC(=O)/C=C\SC(C(C)=O)C(=O)NCc1ccccc1 (stereo not shown) was 1.20

Lab note: measured log10 MIC of CCCCCCCCNC(=O)/C=C\SC(C(=O)NC1CC1)C(=O)OCC (stereo not shown) was 1.49

Lab note: measured log10 MIC of CCCCCCCCNC(=O)/C=C\SC(C(=O)Nc1cc([N+](=O)[O-])ccc1Cl)C(=O)OCC (stereo not shown) was 0.60

====

# Test system: Candida albicans (C.alb)
# Assay remarks: Minimum Inhibitory Concentration Test, alternate (Table 4), C.alb
# Type: cell-based
# Measurement parameters: Candida albicans, TSB, 72 hours
Measured endpoint: MIC

Lab note: measured MIC of CCCCCCCCNC(=O)/C=C\SC(C(=O)NN1CCOCC1)C(=O)OCC (stereo not shown) was < 2 µg/mL

Lab note: measured MIC of CCCCCCCCNC(=O)/C=C\SC(C(=O)NCCCN1CCOCC1)C(=O)OCC (stereo not shown) was < 2 µg/mL

Lab note: measured MIC of CCCCCCCCNC(=O)/C=C\SC(C(=O)Nc1ccc(OC)c(Cl)c1)C(=O)OCC (stereo not shown) was 63 to 250 µg/mL

Lab note: measured MIC of CCCCCCCCNC(=O)/C=C\SC(C(=O)NCCc1ccccn1)C(=O)OCC (stereo not shown) was < 2 µg/mL
